Provenance of the data: patent US20150164910A1

# Tested on: coxsackievirus B3 (CVB3)
# assayNotes: Cell viability assay, prevention of cell death caused by CVB3 infection
# Assay type: cell-based
# conditionParameters: Enterovirus B, read-out: 50% activity concentration (IC50)
pIC50: −log10 of the molar value.
Readings of pIC50 for the listed compounds

compound | pIC50
O=C(Nc1nc(CN2CCCC2)cs1)c1cc(-c2cccs2)nc2ccccc12 | 6.24
NCCC(Oc1ccc(C(F)(F)F)cc1)c1ccccc1 (stereo not drawn) | 5.60
CC(C)n1ncc2c(C(=O)Nc3ccccc3F)cc(-c3cccs3)nc21 | 5.94
CN1c2ccccc2C(=O)NC1c1cc2ccccc2nc1N1CCOCC1 (stereo not drawn) | 6.04
Cc1ccccc1NC(=O)c1cc(-c2cccs2)nc2c1cnn2C(C)C | 6.22
C/C(=C\c1ccccc1)C1NC(N)=Nc2nc3ccccc3n21 (stereo not drawn) | 5.92
Cl.OC(c1cc(C(F)(F)F)nc2c(C(F)(F)F)cccc12)C1CCCCN1 (stereo not drawn) [Compound 22, reference compound] | 5.80
N#Cc1ccc(OCc2nc3ccccc3n2-c2ccccc2)cc1 | 5.52
CC(C)n1ncc2c(C(=O)Nc3ccc4c(c3)OCO4)cc(-c3ccccc3)nc21 | 5.92

###

# Tested on: coxsackievirus B3 (CVB3)
# assayNotes: Cell viability assay, prevention of cell death caused by CVB3 infection
# Format: cell-based
# conditionParameters: Enterovirus B, read-out: 50% activity concentration (IC50)
Examples of molecules with documented IC50 follow.

smilesRepr | targetOfAssay | IC50 (nM)
COc1ccc(N(Cc2ccc(F)cc2)C(=O)c2ccco2)cc1 | coxsackievirus B3 (CVB3) | 3130
Cc1ccc(-c2cc(C(=O)NN)c3ccccc3n2)s1 | coxsackievirus B3 (CVB3) | 780
COc1ccc(C(=O)N2CCC(C(=O)c3ccc4c(c3)OCCO4)CC2)cc1F | coxsackievirus B3 (CVB3) | 200

###

# Test system: eGFP-expressing recombinant CVB3
# Format: cell-based, coxsackievirus B3
# conditionParameters: eGFP-CVB3 m.o.i=1, compound added at time of infection, 6 hr post infection; 1-(% eGFP+ cells with compound/% with DMSO only)

compound | targetOfAssay | Inhibition of infected cells
Cn1ccc(NC(=O)c2cc(-c3cccs3)nc3ccccc23)n1 | eGFP-expressing recombinant CVB3 | 100%
COc1ccc(-c2nc(C)c(C(=O)Nc3cccc(-c4nnc5n4CCCCC5)c3)s2)cc1 | eGFP-expressing recombinant CVB3 | 96.0%
CCOc1ccc(C(=O)N2CCC(C(=O)c3ccc4c(c3)OCCO4)CC2)cc1 | eGFP-expressing recombinant CVB3 | 84.9%
CCCCNCC(=O)Nc1ccccc1N1CCCCC1 | eGFP-expressing recombinant CVB3 | 36.2%
CC(C)c1cc(C(=O)Nc2ccccc2N2CCN(C)CC2)c2cnn(C(C)C)c2n1 | eGFP-expressing recombinant CVB3 | 100%
CC(C)n1ncc2c(C(=O)Nc3ccc(F)cc3Cl)cc(-c3cccs3)nc21 | eGFP-expressing recombinant CVB3 | 99.5%
Cc1ccc(-c2cc(C(=O)NN)c3ccccc3n2)s1 | eGFP-expressing recombinant CVB3 | 100%
Cc1ccc2nc(N3CCN(Cc4nnnn4Cc4ccccc4)CC3)c(C#N)cc2c1 | eGFP-expressing recombinant CVB3 | 79.7%
Cc1ccccc1NC(=O)c1cc(-c2cccs2)nc2c1cnn2C(C)C | eGFP-expressing recombinant CVB3 | 100%
Cl.OC(c1cc(C(F)(F)F)nc2c(C(F)(F)F)cccc12)C1CCCCN1 (stereo not drawn) [Compound 22, reference compound] | eGFP-expressing recombinant CVB3 | 100%
COc1ccc(C(=O)N2CCC(C(=O)c3ccc4c(c3)OCCO4)CC2)cc1F | eGFP-expressing recombinant CVB3 | 82.1%
O=C(CCCc1nc(-c2ccccc2)no1)N1CCN(C2CCCCC2)C(=O)C1 | eGFP-expressing recombinant CVB3 | 96.5%
N#Cc1ccc(OCc2nc3ccccc3n2-c2ccccc2)cc1 | eGFP-expressing recombinant CVB3 | 100%
COc1ccc(NC(=O)c2cc(-c3cccs3)nc3c2cnn3C(C)C)cc1 | eGFP-expressing recombinant CVB3 | 99.5%
O=C(N/N=C1/c2ccccc2-c2nc3ccccc3nc21)c1cccnc1 | eGFP-expressing recombinant CVB3 | 1.6%
CC1Oc2ccc(NC(=O)c3cc(-c4cccs4)nc4ccccc34)cc2NC1=O (stereo not drawn) | eGFP-expressing recombinant CVB3 | 100%
CC(=O)c1c(C)nc2ccc(Cl)cc2c1-c1ccccc1 | eGFP-expressing recombinant CVB3 | 94.5%
COc1cccc(NC(=O)c2cc(-c3cccs3)nc3c2cnn3C(C)C)c1 | eGFP-expressing recombinant CVB3 | 99.2%

###

# System: eGFP-expressing recombinant CVB3
# Type: cell-based, coxsackievirus B3
# conditionParameters: eGFP-CVB3 m.o.i=1, compound added at time of infection, 6 hr post infection; 1-(% eGFP+ cells with compound/% with DMSO only)
In this section we review reported Inhibition of infected cells values for a set of compounds.

compound | targetOfAssay | unitInfo | Inhibition of infected cells
NC(=O)C1CCN(CC(=O)N2N=C3/C(=C/c4cccs4)CCCC3C2c2cccs2)CC1 (centres unmarked) | eGFP-expressing recombinant CVB3 | % | 100
COc1ccc2nc(C)n3c4ccccc4c(NC(C)=O)c3c2c1 | eGFP-expressing recombinant CVB3 | % | 17.2
CN1c2ccccc2C(=O)NC1c1cc2ccccc2nc1N1CCOCC1 (centres unmarked) | eGFP-expressing recombinant CVB3 | % | 100
CC1Oc2ccc(NC(=O)c3cc(C4CC4)nc4c3cnn4C(C)C)cc2NC1=O (centres unmarked) | eGFP-expressing recombinant CVB3 | % | 100
NC1=Nc2nc3ccccc3n2C(c2ccc3ccccc3c2)N1 (centres unmarked) | eGFP-expressing recombinant CVB3 | % | 67.7
O=C(O)c1cccc(NS(=O)(=O)c2ccc(-c3ccccc3)cc2)c1 | eGFP-expressing recombinant CVB3 | % | 85.4
Cc1ccc(F)cc1NC(=O)c1cc(-c2cccs2)nc2c1cnn2C(C)C | eGFP-expressing recombinant CVB3 | % | 99.6
Cc1ccc(S(C)(=O)=O)cc1NC(=O)c1cc(C2CC2)nc2c1cnn2C(C)C | eGFP-expressing recombinant CVB3 | % | 100
COc1ccc(CCC2CCN(Cc3cc(=O)n4ccccc4n3)CC2)cc1 | eGFP-expressing recombinant CVB3 | % | 57.7
Cc1ccc([S+]([O-])Nc2cccc(C(=O)O)c2)cc1 (centres unmarked) | eGFP-expressing recombinant CVB3 | % | 98.4
O=C(Nc1nc(CN2CCCC2)cs1)c1cc(-c2cccs2)nc2ccccc12 | eGFP-expressing recombinant CVB3 | % | 100
COc1ccc(NC(=O)c2nn(Cc3ccccc3)c(=O)c3ccccc23)cn1 | eGFP-expressing recombinant CVB3 | % | 100
O=C(c1ccco1)N(Cc1ccccc1)Cc1ccccn1 | eGFP-expressing recombinant CVB3 | % | 91.7
Brc1ccc(-c2csc3ncnc(Sc4nnc(C5CC5)o4)c23)cc1 | eGFP-expressing recombinant CVB3 | % | 100
CS(=O)(=O)c1ccc(NC(=O)c2cc(-c3ccc(F)cc3)nc3ccccc23)cc1 | eGFP-expressing recombinant CVB3 | % | 99.6
CCCCOc1cc(C(=O)NCCN(CC)CC)c2ccccc2n1 [Compound 35, reference compound] | eGFP-expressing recombinant CVB3 | % | 100
CCN(CC)CCNC1CCCc2c1[nH]c1ccc(C)cc21.Cl (centres unmarked) | eGFP-expressing recombinant CVB3 | % | 99.6
Cl.OCCN1CCN(CC/C=C2/c3ccccc3Sc3ccc(Cl)cc32)CC1 [Compound 71, reference compound] | eGFP-expressing recombinant CVB3 | % | 99.1
CC(C)n1ncc2c(C(=O)Nc3cccc(S(C)(=O)=O)c3)cc(-c3cccs3)nc21 | eGFP-expressing recombinant CVB3 | % | 100
Cc1nc(-c2cccc(NS(=O)(=O)c3ccc4c(c3)CCC(=O)N4)c2)cs1 | eGFP-expressing recombinant CVB3 | % | 59.1
CC(C)n1ncc2c(C(=O)Nc3ccccc3F)cc(-c3cccs3)nc21 | eGFP-expressing recombinant CVB3 | % | 100
Cc1nc2ccccc2c2c(NC(=O)c3cnccn3)c3ccccc3n12 | eGFP-expressing recombinant CVB3 | % | 69.9
Cl.Cl.OCCN1CCN(CC/C=C2/c3ccccc3Sc3ccc(C(F)(F)F)cc32)CC1 [Compound 70, reference compound] | eGFP-expressing recombinant CVB3 | % | 99.6
NNC(=O)c1cc(-c2ccccc2)nc2ccccc12 [Compound 26, 2-Phenyl-4-quinoline-carbohydrazide] | eGFP-expressing recombinant CVB3 | % | 98.7
CCC(C)(C)Nc1c(-c2ccc(OC)c(CN3CCOCC3)c2)nc2cnccn12 | eGFP-expressing recombinant CVB3 | % | 100
OC(c1ccccc1)c1nc2ccccc2n1-c1ccccc1 (centres unmarked) | eGFP-expressing recombinant CVB3 | % | 100
CC(C)n1ncc2c(C(=O)Nc3cccc(-c4nnco4)c3)cc(-c3ccccc3)nc21 | eGFP-expressing recombinant CVB3 | % | 99.6
COc1ccc(/N=c2\oc3ccccc3cc2C(=O)NCC2CCCO2)cc1 (centres unmarked) | eGFP-expressing recombinant CVB3 | % | 90.4
C/C(=C\c1ccccc1)C1NC(N)=Nc2nc3ccccc3n21 (centres unmarked) | eGFP-expressing recombinant CVB3 | % | 100
CC(C)c1cc(C(=O)Nc2cccc(N3CCCC3=O)c2)c2cnn(C(C)C)c2n1 | eGFP-expressing recombinant CVB3 | % | 97.9
O=C(Nc1nc(CN2CCOCC2)cs1)c1cc(-c2ccc(Cl)s2)nc2ccccc12 | eGFP-expressing recombinant CVB3 | % | 94.4
Cc1ccc(NC(=O)c2cc(-c3cccs3)nc3c2cnn3C(C)C)cc1S(N)(=O)=O | eGFP-expressing recombinant CVB3 | % | 100
NCCC(Oc1ccc(C(F)(F)F)cc1)c1ccccc1 (centres unmarked) | eGFP-expressing recombinant CVB3 | % | 100
CC(C)n1ncc2c(C(=O)Nc3ccc4c(c3)OCO4)cc(-c3ccccc3)nc21 | eGFP-expressing recombinant CVB3 | % | 100
CC/C(C)=N\NC(=O)c1cc(-c2cccs2)nc2ccccc12 | eGFP-expressing recombinant CVB3 | % | 100
